Protocol: PhoP-dependent GFP reporter repression – Salmonella Typhimurium, primary screen (AID 1863);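 also: 0% = low Mg2+ inducing control and 100% = high Mg2+ repressing control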
Details: S. Typhimurium PhoP-regulated promoter GFP reporter, 4 h; at 50 µM; hits give high values
The whole screen tested about 300,000 compounds, of which about 480 (0.16%) were called active. Not all results are given here. Potency and affinity values are given separately.
Provide the reported inhibition of each item.
Expressed in %, but write only the number.

### Prompt For the compound CCn1ccc(=O)c2cc3c(cc21)OCO3 , what inhibition is on record?
### Response 2.11

### Prompt Request the reported inhibition associated with Cc1[nH]c2ccccc2c1C(=O)CSC(=S)N1CCCCC1
### Response -9.67

### Prompt Record request: inhibition value, item COc1ccccc1NC(=S)N1CCN(c2ccccc2F)CC1
### Response -4.74

### Prompt Dear colleague, I am looking for the recorded inhibition of the following compound: Cn1c(SCC2CCCCC2)nnc1-c1ccncc1
### Response 7.51

### Prompt GET /values?readout=inhibition&item= CC(C)(C)c1cc(NCCCn2ccnc2)n2ncc(-c3ccccc3)c2n1
### Response -5.57

### Prompt So what does the record say about inhibition for CCC(C)(C)c1ccc(OCCCC[n+]2cccc(C)c2)c(C(C)(C)CC)c1 ?
### Response 25.6

### Prompt Which inhibition is listed for CCCCCCCCCC(=O)N1CCN(c2cc3c(cc2F)c(=O)c(C(=O)O)cn3CC)CC1 ?
### Response 6.32

### Prompt Which value of inhibition has been reported for S=C(NC1CC2CCC1C2)N1CCN(c2cccc(Cl)c2)CC1 (stereo not given) in the records?
### Response -2.31

### Prompt Field request: inhibition | item: Cc1ccc(S(=O)(=O)NN2C(=O)c3ccccc3NC2c2ccccc2O)cc1 (stereo not given)
### Response 2.27

### Prompt Consider the compound Cc1cc(C(C)(C)C)ccc1OCCCCN1CCCC1 and give its measured inhibition.
### Response -7.85
